Reference source: patent US11267826B2

What follows is a record of MIC for hyper-permeable E. coli 901C.

smiles=NCCCC[C@@H](NC(=O)CO/N=C(\C(=O)N[C@H]1Cc2cccc(C(=O)O)c2OB1O)c1csc(N)n1)C(=O)O observed="< 64 µg/mL"
smiles=CC(C)(O/N=C(\C(=O)N[C@H]1Cc2cccc(C(=O)O)c2OB1O)c1csc(N)n1)C(=O)N[C@@H](CO)C(=O)O observed="< 64 µg/mL"
smiles=NCCNc1nc(/C(=N/O)C(=O)N[C@H]2Cc3cccc(C(=O)O)c3OB2O)cs1 observed="> 128 µg/mL"

Problem: Entry under review: `Nc1nc(C(=CCCC(=O)O)C(=O)N[C@H]2Cc3cccc(C(=O)O)c3OB2O)cs1` . Reported MIC?
Solution: < 64 µg/mL
